These entries and their values trace back to paper PMC3539145.

Target or system UniProt P04818; recorded quantity pIC50.
Sequence (P04818 whole entry): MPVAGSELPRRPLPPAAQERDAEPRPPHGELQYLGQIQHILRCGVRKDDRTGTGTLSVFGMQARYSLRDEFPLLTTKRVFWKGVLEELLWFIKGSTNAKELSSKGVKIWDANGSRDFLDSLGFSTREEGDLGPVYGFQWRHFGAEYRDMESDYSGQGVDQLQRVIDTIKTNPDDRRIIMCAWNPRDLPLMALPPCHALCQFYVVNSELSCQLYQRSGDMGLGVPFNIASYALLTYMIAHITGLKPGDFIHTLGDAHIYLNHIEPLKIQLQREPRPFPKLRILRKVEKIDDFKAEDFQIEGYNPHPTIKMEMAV
Lab note: report pIC50 as minus log10 of the concentration in molar units, number only.

Which pIC50 reading was recorded for the molecule CCCCCCNC(=O)n1cc(F)c(=O)[nH]c1=O ? 2.92

Which pIC50 reading was recorded for the molecule CCCCCCNC(=O)n1ccc(=O)[nH]c1=O ? 3.71

Which pIC50 reading was recorded for the molecule CCCCCCNC(=O)n1cc(C(F)(F)F)c(=O)[nH]c1=O ? 2.87

Which pIC50 reading was recorded for the molecule CCCCCCNC(=O)n1cc(C)c(=O)[nH]c1=O ? 3.12

Which pIC50 reading was recorded for the molecule CCCCCCNC(=O)n1cc(Cl)c(=O)[nH]c1=O ? 3.30
